Data credit: PubChem BioAssay

- MEASUREMENT PROTOCOL: SU-DIPG-XXV glioma cell viability, MIPE5.0 library, qHTS (AID 1347068);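 as to IC50: cells exposed to compound for 48 hours before viability readout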
Results filed as inconclusive are left out. Calls of active or inactive are those of the source. The limit is not given here; nearly all actives have IC50 up to about 30 µM.
Your response should consist of one outcome taken from active, inactive

For orientation, consider the following solved cases.
CC(=O)O[C@@]12CO[C@@H]1C[C@H](O)[C@@]1(C)C(=O)[C@H](O)C3=C(C)[C@@H](OC(=O)[C@H](O)[C@@H](NC(=O)OC(C)(C)C)c4ccccc4)C[C@@](O)([C@@H](OC(=O)c4ccccc4)[C@H]21)C3(C)C inactive
COc1cc2c(Nc3ccc(NC(=O)c4ccccc4)cc3)ncnc2cc1OCCCN1CCOCC1 active
O=c1[nH]c(=O)n([C@H]2C[C@H](O)[C@@H](CO)O2)cc1I inactive

Okay, next one:
Each compound tested received a call. Report the one for `COC(=O)[C@@H]1CC2=CC(=O)CC[C@]2(C)[C@@]23O[C@@H]2C[C@@]2(C)[C@@H](CC[C@@]24CCC(=O)O4)[C@H]13` . inactive
